Taken from the supplement of paper PMC9170038.

Tested on: MS2 coat protein
Test: apparent KD of MS2 coat protein; designed switch direction (-1 OFF switch, 1 ON switch): 1; higher = weaker reporter binding
Conditions: Eterna round: R98; input ligand: none
property-name: apparent KD of MS2 coat protein (µM)
Reply numerically in µM, unit not repeated.

Value of apparent KD of MS2 coat protein reported for the sequence CAUGUAUGGUGAGGAUAUGCAAAGGAUCACCUUGUAGAAGGCAUCAGGUAGAAGGUGCAGAGGAUCACCCUGUAAGGAUAUAUC [pwkr2 ssNG1 DX.23] is 0.249

Value of apparent KD of MS2 coat protein reported for the sequence GCAGAAGGUGCGGAGGAUCACCCUGUAAGGAUAUGCAUUAGCAAGGAUAUACAGAGGAUCACCCUGUAGAAGGUGCACUUCAAA [pwkr2 ssNG3 DX.6] is 3.16

Value of apparent KD of MS2 coat protein reported for the sequence AAAUAAAAUAUAGGAUAUGGAAACAUGAGGAUCACCCAUGUAAGAUAAGAUAAAUAAUGAUAUAGCCAGAAGGAUAAAAUAUAA [LRO005_SS NG 2] is 0.0283
